- Tested on: CT26.DLL3 cells
- assay_details: Internalization of [177Lu]Lu-labeled peptide, CT26.DLL3 cells
- Type: cell-based
- run_parameters: 1 h, 37° C.
- Description: [^177Lu]LuCl3 was received from venders in HCl solution. […] The pH of the solution was determined to be approximately 5 by using pH strips. […] A sample from the reaction was analyzed by RP-HPLC using an Agilent Infinity II 1260 HPLC to determine reaction completion and radiochemical purity of [^177Lu]Lu-chelator-peptides. […] Internalization: The resuspended cells in 300 μL of 1% PBSA and counted in the gamma counter as “bound fraction” were collected in 1.5 mL Eppendorf tube and pelleted. […]
Where a SMILES comes first, the peptide text is derived from it. Bridges are numbered along the chain shown (N, C = ends). [ ]: non-standard residue; d: D form. The star is where a group is joined. DOTA = O=C(O)CN1CCN(CC(=O)O)CCN(CC(=O)*)CCN(CC(=O)O)CC1; X1 = O=CCN1CCN(CC(=O)O)CCN(CC(=O)*)CCN(CC(=O)O)CC1; 2Nal = N[C@@H](Cc1ccc2ccccc2c1)C(=O)O; aIle = CC[C@@H](C)[C@H](N)C(=O)O; tBuAla = CC(C)(C)C[C@H](N)C(=O)O; Cha = N[C@@H](CC1CCCCC1)C(=O)O
quantity_measured: % Internalization (out of bound fraction)

CC[C@@H](C)[C@H](NC(=O)[C@@H](NC(=O)[C@H](Cc1c[nH]c2ccccc12)NC(C)=O)[C@@H](C)O)C(=O)N[C@H]1CSSC[C@@H](C(=O)N[C@@H](Cc2c[nH]c3ccccc23)C(=O)N2CCC[C@H]2C(N)=O)NC(=O)[C@H](CC(=O)O)NC(=O)[C@H](CCCCNC(=O)CN2CCN(CC(=O)O)CCN(CC(=O)O)CCN(CC(=O)O)CC2)NC(=O)[C@H](Cc2ccc3ccccc3c2)NC(=O)[C@H](CC(N)=O)NC(=O)[C@H](CC(N)=O)NC1=O [compound 322] (Ac-WT[aIle]CNN[2Nal]K(DOTA)DCWP-NH2; disulfide 4-10)    C (% >50)
CC(=O)N[C@@H](Cc1c[nH]c2ccccc12)C(=O)N[C@H](C(=O)N[C@@H](CC1CCCCC1)C(=O)N[C@H]1CSSC[C@@H](C(=O)N[C@@H](Cc2c[nH]c3ccccc23)C(=O)N2CCC[C@H]2C(N)=O)NC(=O)[C@H](CC(=O)O)NC(=O)[C@H](CCCCNC(=O)CN2CCN(CC(=O)O)CCN(CC(=O)O)CCN(CC(=O)O)CC2)NC(=O)[C@H](Cc2ccc3ccccc3c2)NC(=O)[C@H](CC(N)=O)NC(=O)[C@H](CC(N)=O)NC1=O)[C@@H](C)O [compound 323] (Ac-WT[Cha]CNN[2Nal]K(DOTA)DCWP-NH2; disulfide 4-10)    C (% >50)
CC[C@H](C)[C@H](NC(=O)[C@@H](NC(=O)[C@H](Cc1c[nH]c2ccccc12)NC(C)=O)[C@@H](C)O)C(=O)N[C@H]1CSSC[C@@H](C(=O)N[C@@H](Cc2c[nH]c3ccccc23)C(=O)N2CCC[C@H]2C(N)=O)NC(=O)[C@H](CC(=O)O)NC(=O)[C@H](Cc2cnc[nH]2)NC(=O)[C@H](Cc2ccc3ccccc3c2)NC(=O)[C@H](CC(N)=O)NC(=O)[C@H](CCCCNC(=O)CN2CCN(CC(=O)O)CCN(CC(=O)O)CCN(CC(=O)O)CC2)NC1=O [compound 249] (Ac-WTICK(DOTA)N[2Nal]HDCWP-NH2; disulfide 4-10)    B (25 <% ≤50)
CC(=O)N[C@@H](Cc1c[nH]c2ccccc12)C(=O)N[C@H](C(=O)N[C@@H](CC(C)(C)C)C(=O)N[C@H]1CSSC[C@@H](C(=O)N[C@@H](Cc2c[nH]c3ccccc23)C(=O)N2CCC[C@H]2C(N)=O)NC(=O)[C@H](CC(=O)O)NC(=O)[C@H](CCCCNC(=O)CN2CCN(CC(=O)O)CCN(CC=O)CCN(CC(=O)O)CC2)NC(=O)[C@H](Cc2ccc3ccccc3c2)NC(=O)[C@H](CC(N)=O)NC(=O)[C@H](CC(N)=O)NC1=O)[C@@H](C)O [compound 316] (Ac-WT[tBuAla]CNN[2Nal]K(X1)DCWP-NH2; disulfide 4-10)    B (25 <% ≤50)

---

- System: CT26.DLL3 cells
- assay_details: Internalization of [177Lu]Lu-labeled peptide, CT26.DLL3 cells
- Assay type: cell-based
- run_parameters: 1 h, 37° C.
Where a SMILES comes first, the peptide text is derived from it. Bridges are numbered along the chain shown (N, C = ends). [ ]: non-standard residue; d: D form. The star is where a group is joined. DOTA = O=C(O)CN1CCN(CC(=O)O)CCN(CC(=O)*)CCN(CC(=O)O)CC1; 2Nal = N[C@@H](Cc1ccc2ccccc2c1)C(=O)O; Gly(4-THP) = N[C@H](C(=O)O)C1CCOCC1; Chg = N[C@H](C(=O)O)C1CCCCC1; Tle = CC(C)(C)[C@H](N)C(=O)O
quantity_measured: % Internalization (out of bound fraction)

CC(=O)N[C@@H](Cc1c[nH]c2ccccc12)C(=O)N[C@H](C(=O)N[C@H](C(=O)N[C@H]1CSSC[C@@H](C(=O)N[C@@H](Cc2c[nH]c3ccccc23)C(=O)N2CCC[C@H]2C(N)=O)NC(=O)[C@H](CC(=O)O)NC(=O)[C@H](CCCCNC(=O)CN2CCN(CC(=O)O)CCN(CC(=O)O)CCN(CC(=O)O)CC2)NC(=O)[C@H](Cc2ccc3ccccc3c2)NC(=O)[C@H](CC(N)=O)NC(=O)[C@H](CC(N)=O)NC1=O)C1CCOCC1)[C@@H](C)O [compound 317] (Ac-WT[Gly(4-THP)]CNN[2Nal]K(DOTA)DCWP-NH2; disulfide 4-10)    C (% >50)
CC(=O)N[C@@H](Cc1c[nH]c2ccccc12)C(=O)N[C@H](C(=O)N[C@H](C(=O)N[C@H]1CSSC[C@@H](C(=O)N[C@@H](Cc2c[nH]c3ccccc23)C(=O)N2CCC[C@H]2C(N)=O)NC(=O)[C@H](CC(=O)O)NC(=O)[C@H](CCCCNC(=O)CN2CCN(CC(=O)O)CCN(CC(=O)O)CCN(CC(=O)O)CC2)NC(=O)[C@H](Cc2ccc3ccccc3c2)NC(=O)[C@H](CC(N)=O)NC(=O)[C@H](CC(N)=O)NC1=O)C(C)(C)C)[C@@H](C)O [compound 315] (Ac-WT[Tle]CNN[2Nal]K(DOTA)DCWP-NH2; disulfide 4-10)    C (% >50)
CC(=O)N[C@@H](Cc1c[nH]c2ccccc12)C(=O)N[C@H](C(=O)N[C@H](C(=O)N[C@H]1CSSC[C@@H](C(=O)N[C@@H](Cc2c[nH]c3ccccc23)C(=O)N2CCC[C@H]2C(N)=O)NC(=O)[C@H](CC(=O)O)NC(=O)[C@H](CCCCNC(=O)CN2CCN(CC(=O)O)CCN(CC(=O)O)CCN(CC(=O)O)CC2)NC(=O)[C@H](Cc2ccc3ccccc3c2)NC(=O)[C@H](CC(N)=O)NC(=O)[C@H](CC(N)=O)NC1=O)C1CCCCC1)[C@@H](C)O [compound 318] (Ac-WT[Chg]CNN[2Nal]K(DOTA)DCWP-NH2; disulfide 4-10)    C (% >50)

---

- target_or_test_system: DLL3 (Homo sapiens, UniProt Q9NYJ7)
- Sequence (Q9NYJ7 27-618): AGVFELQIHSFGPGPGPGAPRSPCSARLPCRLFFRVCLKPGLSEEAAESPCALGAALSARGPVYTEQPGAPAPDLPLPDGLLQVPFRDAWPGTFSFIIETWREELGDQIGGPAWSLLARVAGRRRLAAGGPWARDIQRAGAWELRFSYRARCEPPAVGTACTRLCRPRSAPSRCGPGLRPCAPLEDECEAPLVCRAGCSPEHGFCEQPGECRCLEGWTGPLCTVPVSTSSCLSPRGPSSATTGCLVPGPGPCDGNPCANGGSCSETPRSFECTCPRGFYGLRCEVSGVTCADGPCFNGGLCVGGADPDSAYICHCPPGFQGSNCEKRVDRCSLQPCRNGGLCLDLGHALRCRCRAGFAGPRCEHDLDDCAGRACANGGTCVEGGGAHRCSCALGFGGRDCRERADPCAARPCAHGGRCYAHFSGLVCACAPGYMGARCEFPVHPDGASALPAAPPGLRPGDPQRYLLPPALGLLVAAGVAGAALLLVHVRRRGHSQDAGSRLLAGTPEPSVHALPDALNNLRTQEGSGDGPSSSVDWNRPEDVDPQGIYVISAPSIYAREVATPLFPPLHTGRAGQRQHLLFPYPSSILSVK
- assay_details: SPR KD, biotinylated human DLL3 on streptavidin chip (Table 8)
- Parameters: biotin (biotinylated)
- run_parameters: biotinylated human DLL3 on streptavidin sensor chip, 25° C., 1:1 binding model; read-out: SPR KD
pKd: −log10 of the molar value. Where a SMILES comes first, the peptide text is derived from it. Bridges are numbered along the chain shown (N, C = ends). [ ]: non-standard residue; d: D form.
quantity_measured: pKd

DLL3 (Homo sapiens, UniProt Q9NYJ7) / pKd / CC[C@H](C)[C@H](NC(=O)[C@@H](NC(=O)[C@H](Cc1c[nH]c2ccccc12)NC(=O)[C@H](CCSC)NC(C)=O)[C@@H](C)O)C(=O)N[C@H]1CSSC[C@@H](C(=O)N[C@@H](Cc2c[nH]c3ccccc23)C(=O)N2CCC[C@H]2C(N)=O)NC(=O)[C@H](CC(=O)O)NC(=O)[C@H](Cc2cnc[nH]2)NC(=O)[C@H](Cc2c[nH]c3ccccc23)NC(=O)[C@@H](C)NC(=O)[C@H](CC(N)=O)NC1=O [compound 39] (Ac-MWTICN[dA]WHDCWP-NH2; disulfide 5-11) : value?
7.00 to 8.00
